- Target Entity: T1, PUF4 RNA-binding domain (Saccharomyces cerevisiae, UniProt P25339 537-888)
- T1 sequence: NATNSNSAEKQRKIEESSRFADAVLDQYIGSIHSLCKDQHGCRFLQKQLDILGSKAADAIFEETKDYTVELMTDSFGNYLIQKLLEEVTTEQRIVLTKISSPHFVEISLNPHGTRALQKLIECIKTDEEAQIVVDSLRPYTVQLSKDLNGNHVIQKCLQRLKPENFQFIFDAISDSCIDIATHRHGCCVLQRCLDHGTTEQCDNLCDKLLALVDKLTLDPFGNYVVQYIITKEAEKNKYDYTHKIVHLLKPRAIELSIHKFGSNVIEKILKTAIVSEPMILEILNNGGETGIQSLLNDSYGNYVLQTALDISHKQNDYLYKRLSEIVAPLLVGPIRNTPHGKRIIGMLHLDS
- Protocol Description: Mg; RNA-MaP; 20 mM Na-HEPES pH 7.4, 30 mM KOAc, 0.75 mM MgCl2, 0.1% Tween-20, 5% glycerol, 0.1 mg/mL BSA, 2 mM DTT; 25 C; 0.0125-409.6 nM protein
- Assay Setup: tags: N-His6-TEV cleaved; C-SNAP kept, Cy3B-labelled; label: tethered on chip by stalled RNA polymerase
pKd: −log10 of the molar value.
Readout Label: pKd

Example entries begin here.
[[record]]
binder = "Ib_S2_P4E.1_K4.1_C4.1_H4.1_[G2T]_A4.1_F4.1_[A9G]_T4.1 (ssRNA) RNA: UUUGAUUAAUAUGAUAUCGUUCUUUCUUUUAUAUUGUUCUUUCUCGAUAUCAUAUUAAUCUUU"
assay_value = "< 5.64"

[[record]]
binder = "UCUCUUAAACACUAUUAUAUCUCUU (ssRNA) [Id_ii_S1_P4E.4_K4.3_C4.2_[C-2A]_[T-1A]_H4.3_A4.1_F4.1_T4.2_[G10T]_[T11A]]"
assay_value = "< 5.64"


Give its pKd value. Item: ACAAACUCACACUAUUAUUACAAAC (ssRNA) [Id_ii_S3_P4E.4_K4.3_C4.2_[C-2T]_[T-1C]_H4.3_A4.1_F4.1_T4.2_[G10T]]
< 5.64
